# credit: patent US11124497B1

Target: 229E mPRO (Human coronavirus 229E (HCoV-229E), UniProt P0C6X1)
Sequence (P0C6X1 2966-3267 limits assumed): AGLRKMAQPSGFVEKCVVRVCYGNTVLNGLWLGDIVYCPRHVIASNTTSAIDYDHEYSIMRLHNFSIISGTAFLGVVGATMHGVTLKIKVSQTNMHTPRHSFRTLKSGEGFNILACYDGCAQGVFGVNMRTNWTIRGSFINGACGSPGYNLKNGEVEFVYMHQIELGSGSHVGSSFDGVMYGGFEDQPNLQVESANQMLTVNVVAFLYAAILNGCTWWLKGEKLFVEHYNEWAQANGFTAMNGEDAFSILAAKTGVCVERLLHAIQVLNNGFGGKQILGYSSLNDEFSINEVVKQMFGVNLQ
Test: 229E mPRO enzymatic assay
Format: biochemical, Human Coronavirus (HCov) 229E
Settings: read-out: 229E mPRO IC50
pIC50: −log10 of the molar value.
measurement kind: pIC50

# compound, observed measurement
rows = [
    ("COc1cccc2[nH]c(C(=O)N3CCC4(CC4)C[C@H]3C(=O)N[C@H](C#N)C[C@@H]3CCNC3=O)cc12 [Compound 183]", "5.00 to 5.70"),
    ("N#C[C@H](C[C@@H]1CCNC1=O)NC(=O)[C@H](CC1CC1)NC(=O)c1cc2cc(Cl)ccc2[nH]1 [Compound 519]", "> 4.66"),
    ("N#C[C@H](C[C@@H]1CCNC1=O)NC(=O)[C@@H]1CCCNN1C(=O)/C=C/c1ccc(Cl)cc1F [Compound 213]", "< 4.52"),
    ("COc1cccc2[nH]c(C(=O)N[C@@H](CC(C)(C)C)C(=O)N[C@H](C#N)C[C@@H]3CCCNC3=O)cc12 [Compound 643]", "> 4.66"),
    ("CC[C@H]1CN(C(=O)c2cc3c(OC)cccc3[nH]2)[C@@H]1C(=O)N[C@H](C#N)C[C@@H]1CCNC1=O [Compound 391]", "< 4.52"),
    ("CN1CCCC[C@]12CCN([C@@H](CC1CC1)C(=O)N[C@H](C#N)C[C@@H]1CCNC1=O)C2=O [Compound 273C]", "5.00 to 5.70"),
    ("COc1nccc2[nH]c(C(=O)N[C@@H](CC3CC3)C(=O)N[C@H](C#N)C[C@@H]3CCCNC3=O)cc12 [Compound 623]", "< 4.52"),
]

----------
Target: SARS-COV2 Mpro (Severe acute respiratory syndrome coronavirus 2 (2019-nCoV) (SARS-CoV-2), UniProt P0DTD1)
Test: COVID-19 (nCoV-2019, SARS-CoV2) Mpro enzymatic assay
Type: biochemical
Details: 25 nM Mpro, 25 μM substrate

# compound, IC50
data = [
    ("COc1cccc2[nH]c(C(=O)N[C@H](CN[C@H](C#N)C[C@@H]3CCNC3=O)CC(C)(C)C)cc12 [Compound 659]", "> 30 µM"),
    ("COc1cccc2[nH]c(C(=O)N[C@@H](CC3CC3)C(=O)N[C@@]3(C#N)CCc4cccnc4C3)cc12 [Compound 279]", "> 30 µM"),
    ("COc1cccc2[nH]c(C(=O)N[C@@H](CC(C)C)C(=O)N[C@@H](C#N)Cc3cc(=O)[nH]c4ccccc34)cc12 (mixture of isomers) [Compound 237]", "> 30 µM"),
    ("COc1cccc2[nH]c(C(=O)N[C@@H](CC(C)C)C(=O)N[C@@H](C[C@@H]3CCNC3=O)C(C#N)NCC(=O)O)cc12 (stereo partly shown) [Compound 653]", "< 22 µM"),
]

----------
Reported IC50 values follow for various molecules
Target: 229E mPRO (Human coronavirus 229E (HCoV-229E), UniProt P0C6X1)
Experiment: 229E mPRO enzymatic assay
Assay type: biochemical, Human Coronavirus (HCov) 229E
Details: read-out: 229E mPRO IC50

# molecule, IC50
rows = [
    ("N#C[C@H](C[C@@H]1CCNC1=O)NC(=O)[C@@H]1C[C@@H](c2ccccc2)CN1C(=O)/C=C/c1ccc(Cl)cc1F [Compound 209]", "10 to 30 µM"),
    ("COc1cccc2[nH]c(C(=O)N[C@@H](CC(C)C)C(=O)N[C@H](C#N)Cc3cc[nH]n3)cc12 (mixture of isomers) [Compound 241]", "> 30 µM"),
    ("N#C[C@H](C[C@@H]1CCNC1=O)NC(=O)[C@@H]1CCc2ccc(NCC(=O)O)c(=O)n21 [Compound 501]", "> 30 µM"),
    ("CC(C)(C)OC(=O)N1CCCCC12CCN([C@@H](CC1CC1)C(=O)N[C@H](C#N)C[C@@H]1CCNC1=O)C2=O (single isomer, unassigned) [473 (Isomer 2)]", "> 30 µM"),
    ("N#CC1(NC(=O)[C@H](CC2CC2)NC(=O)OCc2ccccc2)C[C@H]2CC[C@@H]1[C@H]1C(=O)NC(=O)[C@@H]21 (single isomer, unassigned) [495 (Isomer 1)]", "> 30 µM"),
    ("N#C[C@H](C[C@@H]1CCNC1=O)NC(=O)[C@H](CC1CC1)n1ccc2[nH]cnc2c1=O [Compound 269]", "> 30 µM"),
    ("COc1cccc2[nH]c(C(=O)N[C@@H](CC(C)C)C(=O)N[C@@H](C[C@@H]3CCNC3=O)C(C#N)N3CCCC3)cc12 (single isomer, unassigned) [331 (Isomer 2)]", "< 22 µM"),
    ("COc1cccc2[nH]c(C(=O)N3CC4(CCC4)CC3C(=O)N[C@H](C#N)C[C@@H]3CCCNC3=O)cc12 (single isomer, unassigned) [719 (Isomer 2)]", "< 22 µM"),
    ("COc1cccc2[nH]c(C(=O)N[C@@H](CC3CCC3)C(=O)N[C@H](C#N)C[C@@H]3CCNC3=O)cc12 [Compound 577]", "< 22 µM"),
    ("N#C[C@H](C[C@@H]1CCNC1=O)NC(=O)[C@H](CC1CC1)NC(=O)c1cc2cccc(Cl)c2[nH]1 [Compound 531]", "< 22 µM"),
]
